Experiment: NCI Yeast Anticancer Drug Screen. Data for the cln2 rad14 strain (AID 165);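 also: 0% = growth equal to vehicle treated cultures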
Settings: S. cerevisiae cln2 rad14 strain, at 5.0 µM (retest, dose inferred, filed as 0.5), hits give high values
This is part of a sample that, as a whole, favours compounds with a hit. Of some 79,000 tested, about 15% had one in any assay.
Readings of growth inhibition for the listed compounds
Measured Property: growth inhibition (%)

>>> df
                                    compound  result_number
 0                      NNC(=S)Nc1cccc(Cl)c1             66
 1              COc1ccc(SCc2cc(OC)ccc2OC)cc1            -25
 2       O=S(=O)(c1cc(Cl)ccc1O)c1cc(Cl)ccc1O             23
 3  O=C1c2ccccc2C(=O)c2cc(S(=O)(=O)Nc3ccccc3)ccc21             22
 4  CCOC(=O)C(NC(=O)CC)(N1CCN(c2cc3c(cc2F)c(=O)c(C(=O)O)cn3C2CC2)CC1)C(F)(F)F (stereo unspecified)              1
 5  CC(=O)C1(O)Cc2c(O)c3c(c(O)c2C(OC2CC(N)C(O)C(C)O2)C1)C(=O)c1ccccc1C3=O (stereo unspecified)            -15
 6       Cn1ncc2cc3c(Nc4ccc(Cl)cc4)cccc3nc21            -11
 7  Cc1onc(-c2ccccc2Cl)c1C1=N/C(=C/c2cc(Cl)cc(Cl)c2O)C(=O)O1             72
 8                S=c1nc(Cl)cc2[nH]c(Cl)cn12            -57
 9                    O=C1c2ccccc2CCC1(Br)Br             18
10                     N#CC(=S)Nc1cccc(Cl)c1              8
